Test: Plasma pharmacokinetics of Compound 1 and metabolite 1-7 (LC-MS/MS) in Parts C, D and E
Type: in vivo, human
Settings: human, plasma, oral, 600 mg/d, steady state = mean of C24 at 72, 96, 120, 144 and 168 h; Part D, NC GT3, 600 mg/d Compound 2 QD, n=6; read-out: C24 h SS
Protocol: Doses were administered as the Compound 2 salt base. The free base Compound 1 equivalent is often given in parenthesis. Part C was a randomized, double-blind, placebo-controlled MAD study divided into three cohorts. […] HCV-infected patients were treatment-naïve with HCV RNA ≥5 log 10 IU/mL. HCV RNA was quantified using COBAS® AmpliPrep TaqMAN® v2.0 with LLQ of 15 IU/mL. Plasma drug levels were measured using LC-MS/MS. […] Plasma levels of metabolite 1-7 were measured using LC-MS/MS.
property.name: concentration at 24 h (ng/mL)
Response body: numeric value in ng/mL, unit text excluded.

Data request, read-out concentration at 24 h, for C[C@@]1(F)[C@H](O)[C@@H](CO)O[C@H]1n1cnc2c(=O)[nH]c(N)nc21 [Metabolite 1-7]
37.8

====

Test: Plasma pharmacokinetics of Compound 1 and metabolite 1-7 (LC-MS/MS) in Parts C, D and E
Format: in vivo, human
Conditions: human, in vivo, 300 mg/d, Part C, NC GT1b, 300 mg/d Compound 2 QD, n=6; read-out: T1/2 Day 1 (converted)
property.name: half-life (min)
Response body: numeric value in min, unit text excluded.

Data request, read-out half-life, for CNc1nc(N)nc2c1ncn2[C@@H]1O[C@H](CO[P@@](=O)(N[C@@H](C)C(=O)OC(C)C)Oc2ccccc2)[C@@H](O)[C@@]1(C)F [Compound 1]
48

====

Test: Plasma pharmacokinetics of Compound 1 and metabolite 1-7 (LC-MS/MS) in Parts C, D and E
Format: in vivo, human
Conditions: human, plasma, oral, 600 mg/d, steady state = mean of C24 at 72, 96, 120, 144 and 168 h; Part C, NC GT1b, 600 mg/d Compound 2 QD, n=6; read-out: C24 h SS
property.name: concentration at 24 h

Data request, read-out concentration at 24 h, for C[C@@]1(F)[C@H](O)[C@@H](CO)O[C@H]1n1cnc2c(=O)[nH]c(N)nc21 [Metabolite 1-7]
46.9 ng/mL

====

Assay: Plasma pharmacokinetics of Compound 1 and metabolite 1-7 (LC-MS/MS) in Parts C, D and E
Type: in vivo, human
Details: human, in vivo, 600 mg/d, steady state; Part C, NC GT1b, 600 mg/d Compound 2 QD, n=6; read-out: Tmax SS
property.name: Tmax (min)
Response body: numeric value in min, unit text excluded.

Data request, read-out Tmax, for CNc1nc(N)nc2c1ncn2[C@@H]1O[C@H](CO[P@@](=O)(N[C@@H](C)C(=O)OC(C)C)Oc2ccccc2)[C@@H](O)[C@@]1(C)F
30

====

Experiment: Plasma pharmacokinetics of Compound 1 and metabolite 1-7 (LC-MS/MS) in Parts C, D and E
Format: in vivo, human
Details: human, plasma, oral, Part C; read-out: half-life
property.name: half-life

Data request, read-out half-life, for C[C@@]1(F)[C@H](O)[C@@H](CO)O[C@H]1n1cnc2c(=O)[nH]c(N)nc21 [Metabolite 1-7]
780 to 1800 min

====

Assay: Plasma pharmacokinetics of Compound 1 and metabolite 1-7 (LC-MS/MS) in Parts C, D and E
Format: in vivo, human
Conditions: human, plasma, oral, 600 mg/d, Part C, NC GT1b, 600 mg/d Compound 2 QD, n=6; trough after the first dose; read-out: C24 h Day 1
Method: Doses were administered as the Compound 2 salt base. The free base Compound 1 equivalent is often given in parenthesis. Part C was a randomized, double-blind, placebo-controlled MAD study divided into three cohorts. […] HCV-infected patients were treatment-naïve with HCV RNA ≥5 log 10 IU/mL. HCV RNA was quantified using COBAS® AmpliPrep TaqMAN® v2.0 with LLQ of 15 IU/mL. Plasma drug levels were measured using LC-MS/MS. […] Plasma levels of metabolite 1-7 were measured using LC-MS/MS.
property.name: concentration at 24 h (ng/mL)
Response body: numeric value in ng/mL, unit text excluded.

Data request, read-out concentration at 24 h, for C[C@@]1(F)[C@H](O)[C@@H](CO)O[C@H]1n1cnc2c(=O)[nH]c(N)nc21 [Metabolite 1-7]
27.5

====

Assay: Plasma pharmacokinetics of Compound 1 and metabolite 1-7 (LC-MS/MS) in Parts C, D and E
Assay type: in vivo, human
Details: human, in vivo, 300 mg/d, Part C, NC GT1b, 300 mg/d Compound 2 QD, n=6; read-out: Cmax Day 1
property.name: Cmax

Data request, read-out Cmax, for CNc1nc(N)nc2c1ncn2[C@@H]1O[C@H](CO[P@@](=O)(N[C@@H](C)C(=O)OC(C)C)Oc2ccccc2)[C@@H](O)[C@@]1(C)F [Compound 1]
2280 ng/mL

====

Assay: Plasma pharmacokinetics of Compound 1 and metabolite 1-7 (LC-MS/MS) in Parts C, D and E
Type: in vivo, human
Conditions: human, in vivo, 150 mg/d, Part C, NC GT1b, 150 mg/d Compound 2 QD, n=6; read-out: Cmax Day 1
property.name: Cmax (ng/mL)
Response body: numeric value in ng/mL, unit text excluded.

Data request, read-out Cmax, for CNc1nc(N)nc2c1ncn2[C@@H]1O[C@H](CO[P@@](=O)(N[C@@H](C)C(=O)OC(C)C)Oc2ccccc2)[C@@H](O)[C@@]1(C)F [Compound 1]
573

====

Assay: Plasma pharmacokinetics of Compound 1 and metabolite 1-7 (LC-MS/MS) in Parts C, D and E
Assay type: in vivo, human
Conditions: human, in vivo, 600 mg/d, Part D, NC GT3, 600 mg/d Compound 2 QD, n=6; read-out: Cmax Day 1
property.name: Cmax (ng/mL)
Response body: numeric value in ng/mL, unit text excluded.

Data request, read-out Cmax, for CNc1nc(N)nc2c1ncn2[C@@H]1O[C@H](CO[P@@](=O)(N[C@@H](C)C(=O)OC(C)C)Oc2ccccc2)[C@@H](O)[C@@]1(C)F [Compound 1]
3970

====

Test: Plasma pharmacokinetics of Compound 1 and metabolite 1-7 (LC-MS/MS) in Parts C, D and E
Type: in vivo, human
Details: human, in vivo, 600 mg/d, Part D, NC GT3, 600 mg/d Compound 2 QD, n=6; read-out: T1/2 Day 1 (converted)
property.name: half-life
Returns: string containing the number followed by the unit.

Data request, read-out half-life, for CNc1nc(N)nc2c1ncn2[C@@H]1O[C@H](CO[P@@](=O)(N[C@@H](C)C(=O)OC(C)C)Oc2ccccc2)[C@@H](O)[C@@]1(C)F
43.8 min

====

Test: Plasma pharmacokinetics of Compound 1 and metabolite 1-7 (LC-MS/MS) in Parts C, D and E
Assay type: in vivo, human
Conditions: human, in vivo, 300 mg/d, steady state; Part C, NC GT1b, 300 mg/d Compound 2 QD, n=6; read-out: T1/2 SS (converted)
property.name: half-life

Data request, read-out half-life, for CNc1nc(N)nc2c1ncn2[C@@H]1O[C@H](CO[P@@](=O)(N[C@@H](C)C(=O)OC(C)C)Oc2ccccc2)[C@@H](O)[C@@]1(C)F
43.8 min

====

Assay: Plasma pharmacokinetics of Compound 1 and metabolite 1-7 (LC-MS/MS) in Parts C, D and E
Type: in vivo, human
Details: human, in vivo, 300 mg/d, steady state; Part C, NC GT1b, 300 mg/d Compound 2 QD, n=6; read-out: Cmax SS
property.name: Cmax (ng/mL)
Response body: numeric value in ng/mL, unit text excluded.

Data request, read-out Cmax, for CNc1nc(N)nc2c1ncn2[C@@H]1O[C@H](CO[P@@](=O)(N[C@@H](C)C(=O)OC(C)C)Oc2ccccc2)[C@@H](O)[C@@]1(C)F
1830

====

Experiment: Plasma pharmacokinetics of Compound 1 and metabolite 1-7 (LC-MS/MS) in Parts C, D and E
Type: in vivo, human
Conditions: human, in vivo, 150 mg/d, Part C, NC GT1b, 150 mg/d Compound 2 QD, n=6; read-out: Tmax Day 1
property.name: Tmax

Data request, read-out Tmax, for CNc1nc(N)nc2c1ncn2[C@@H]1O[C@H](CO[P@@](=O)(N[C@@H](C)C(=O)OC(C)C)Oc2ccccc2)[C@@H](O)[C@@]1(C)F
30 min

====

Assay: Plasma pharmacokinetics of Compound 1 and metabolite 1-7 (LC-MS/MS) in Parts C, D and E
Assay type: in vivo, human
Conditions: human, in vivo, 600 mg/d, Part D, NC GT3, 600 mg/d Compound 2 QD, n=6; read-out: Tmax Day 1
property.name: Tmax
Returns: string containing the number followed by the unit.

Data request, read-out Tmax, for CNc1nc(N)nc2c1ncn2[C@@H]1O[C@H](CO[P@@](=O)(N[C@@H](C)C(=O)OC(C)C)Oc2ccccc2)[C@@H](O)[C@@]1(C)F
30 min
